- Test system: 171881-019-R-J1-PDC tumor spheroid viability
- test_details: Anticancer human tumor 171881-019-R-J1-PDC patient-derived invasive breast carcinoma cell line growth inhibition [PI3K]
- experimental_context: second compound 0.316 µM; first compound 0.1 µM; hits give low values; spheroids with HUVEC and MSC

compound	unit_spec	viability, T/C
Cn1ncc(Cl)c1-c1cc(C(=O)NC(CN)Cc2cccc(F)c2)sc1Cl (stereo not given) + CC(Nc1ccc2c(c1)OCCn1cc(N3C(=O)OCC3C(F)F)nc1-2)C(N)=O	%	26.3
Cn1ncnc1[C@H]1c2n[nH]c(=O)c3cc(F)cc(c23)N[C@@H]1c1ccc(F)cc1 + Cc1nc(NC(=O)N2CCCC2C(N)=O)sc1-c1ccnc(C(C)(C)C(F)(F)F)c1	%	46.6
CC(C)n1nc(-c2ccc3oc(N)nc3c2)c2c(N)ncnc21 + COc1c(OCCCN2CCOCC2)ccc2c3n(c(=NC(=O)c4cnc(N)nc4)nc12)CCN3	%	1.1
CC1(C)CCC(CN2CCN(c3ccc(C(=O)NS(=O)(=O)c4ccc(NCC5CCOCC5)c([N+](=O)[O-])c4)c(Oc4cnc5[nH]ccc5c4)c3)CC2)=C(c2ccc(Cl)cc2)C1 + Cc1nc(NC(=O)N2CCCC2C(N)=O)sc1-c1ccnc(C(C)(C)C(F)(F)F)c1	%	52.6
CC(Cn1ccc(-c2ccc(C#N)c(Cl)c2)n1)NC(=O)c1cc(C(C)O)[nH]n1 (stereo not given) + COc1c(OCCCN2CCOCC2)ccc2c3n(c(=NC(=O)c4cnc(N)nc4)nc12)CCN3	%	1.42

###

- System: 171881-019-R-J1-PDC tumor spheroid viability
- test_details: Anticancer human tumor 171881-019-R-J1-PDC cell line growth inhibition [PI3K];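 also: spheroids exposed to compound for 7 days before viability read; 100% = DMSO vehicle-treated spheroids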
- experimental_context: second compound 1 µM; first compound 0.1 µM; hits give low values; spheroids with HUVEC and MSC

compound	target_entity	viability, T/C, %
CC(Cn1ccc(-c2ccc(C#N)c(Cl)c2)n1)NC(=O)c1cc(C(C)O)[nH]n1 (stereo not given) + COc1c(OCCCN2CCOCC2)ccc2c3n(c(=NC(=O)c4cnc(N)nc4)nc12)CCN3	171881-019-R-J1-PDC tumor spheroid viability	0.9
Cn1ncc(Cl)c1-c1cc(C(=O)NC(CN)Cc2cccc(F)c2)sc1Cl (stereo not given) + CC(Nc1ccc2c(c1)OCCn1cc(N3C(=O)OCC3C(F)F)nc1-2)C(N)=O	171881-019-R-J1-PDC tumor spheroid viability	18.1
CNC(=O)c1ccc(N2C(=S)N(c3ccc(C#N)c(C(F)(F)F)c3)C(=O)C2(C)C)cc1F + CC(Nc1ncnc2nc[nH]c12)c1cc2cccc(Cl)c2c(=O)n1-c1ccccc1	171881-019-R-J1-PDC tumor spheroid viability	100
CCCS(=O)(=O)Nc1ccc(F)c(C(=O)c2c[nH]c3ncc(-c4ccc(Cl)cc4)cc23)c1F + Cc1nc(NC(=O)N2CCCC2C(N)=O)sc1-c1ccnc(C(C)(C)C(F)(F)F)c1	171881-019-R-J1-PDC tumor spheroid viability	36.7
CC1(C)CCC(Nc2ncc(C(F)(F)F)c(-c3c[nH]c4c(P(C)(C)=O)c(C#N)ccc34)n2)CN1 (stereo not given) + Cc1nc(NC(=O)N2CCCC2C(N)=O)sc1-c1ccnc(C(C)(C)C(F)(F)F)c1	171881-019-R-J1-PDC tumor spheroid viability	30.6

###

Below, each of the molecules is paired with its reported viability, T/C value.
- System: 171881-019-R-J1-PDC tumor spheroid viability
- test_details: Anticancer human tumor 171881-019-R-J1-PDC cell line growth inhibition [PI3K];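 also: spheroids exposed to compound for 7 days before viability read; 100% = DMSO vehicle-treated spheroids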
- experimental_context: second compound 0.0316 µM; first compound 0.316 µM; hits give low values; spheroids with HUVEC and MSC

molecule	target_entity	unit_spec	viability, T/C
Cn1ncc(Cl)c1-c1cc(C(=O)NC(CN)Cc2cccc(F)c2)sc1Cl (stereo not drawn) + CC(Nc1ccc2c(c1)OCCn1cc(N3C(=O)OCC3C(F)F)nc1-2)C(N)=O	171881-019-R-J1-PDC tumor spheroid viability	%	29.3
CC1(C)CCC(Nc2ncc(C(F)(F)F)c(-c3c[nH]c4c(P(C)(C)=O)c(C#N)ccc34)n2)CN1 (stereo not drawn) + CC(Nc1ncnc2nc[nH]c12)c1cc2cccc(Cl)c2c(=O)n1-c1ccccc1	171881-019-R-J1-PDC tumor spheroid viability	%	71.8
Cn1nccc1Nc1nccc(-c2ccn(C(CO)c3ccc(Cl)c(F)c3)c(=O)c2)n1 (stereo not drawn) + CC(Nc1ncnc2nc[nH]c12)c1cc2cccc(Cl)c2c(=O)n1-c1ccccc1	171881-019-R-J1-PDC tumor spheroid viability	%	62.2

###

- System: 171881-019-R-J1-PDC tumor spheroid viability
- test_details: Anticancer human tumor 171881-019-R-J1-PDC cell line growth inhibition [PI3K];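 also: spheroids exposed to compound for 7 days before viability read; 100% = DMSO vehicle-treated spheroids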
- experimental_context: second compound 1 µM; first compound 3.16 µM; hits give low values; spheroids with HUVEC and MSC
Below, each of the molecules is paired with its reported viability, T/C value.

molecule	target_entity	unit_spec	viability, T/C
CC1(C)CCC(CN2CCN(c3ccc(C(=O)NS(=O)(=O)c4ccc(NCC5CCOCC5)c([N+](=O)[O-])c4)c(Oc4cnc5[nH]ccc5c4)c3)CC2)=C(c2ccc(Cl)cc2)C1 + CC(Nc1ncnc2nc[nH]c12)c1cc2cccc(Cl)c2c(=O)n1-c1ccccc1	171881-019-R-J1-PDC tumor spheroid viability	%	59.9
C=CC(=O)N1CCN(c2nc(=O)n(-c3c(C)ccnc3C(C)C)c3nc(-c4c(O)cccc4F)c(F)cc23)C(C)C1 (stereo not given) + Cc1nc(NC(=O)N2CCCC2C(N)=O)sc1-c1ccnc(C(C)(C)C(F)(F)F)c1	171881-019-R-J1-PDC tumor spheroid viability	%	33
CNC(=O)c1ccc(N2C(=S)N(c3ccc(C#N)c(C(F)(F)F)c3)C(=O)C2(C)C)cc1F + COc1c(OCCCN2CCOCC2)ccc2c3n(c(=NC(=O)c4cnc(N)nc4)nc12)CCN3	171881-019-R-J1-PDC tumor spheroid viability	%	1.02
C=CC(=O)N1CCN(c2nc(=O)n(-c3c(C)ccnc3C(C)C)c3nc(-c4c(O)cccc4F)c(F)cc23)C(C)C1 (stereo not given) + CC(Nc1ncnc2nc[nH]c12)c1cc2cccc(Cl)c2c(=O)n1-c1ccccc1	171881-019-R-J1-PDC tumor spheroid viability	%	99.4
CC1(C)CCC(CN2CCN(c3ccc(C(=O)NS(=O)(=O)c4ccc(NCC5CCOCC5)c([N+](=O)[O-])c4)c(Oc4cnc5[nH]ccc5c4)c3)CC2)=C(c2ccc(Cl)cc2)C1 + CC(Nc1ccc2c(c1)OCCn1cc(N3C(=O)OCC3C(F)F)nc1-2)C(N)=O	171881-019-R-J1-PDC tumor spheroid viability	%	22
C[C@@H](NC(=O)c1ncnc(N)c1Cl)c1ncc(C(=O)Nc2cc(C(F)(F)F)c(Cl)cn2)s1 + COc1c(OCCCN2CCOCC2)ccc2c3n(c(=NC(=O)c4cnc(N)nc4)nc12)CCN3	171881-019-R-J1-PDC tumor spheroid viability	%	0.85
CC(C)NCC(C(=O)N1CCN(c2ncnc3c2C(C)CC3O)CC1)c1ccc(Cl)cc1 (stereo not given) + CC(Nc1ccc2c(c1)OCCn1cc(N3C(=O)OCC3C(F)F)nc1-2)C(N)=O	171881-019-R-J1-PDC tumor spheroid viability	%	9.24
CC(Cn1ccc(-c2ccc(C#N)c(Cl)c2)n1)NC(=O)c1cc(C(C)O)[nH]n1 (stereo not given) + Cc1nc(NC(=O)N2CCCC2C(N)=O)sc1-c1ccnc(C(C)(C)C(F)(F)F)c1	171881-019-R-J1-PDC tumor spheroid viability	%	30.5
CNC(=O)c1ccc(N2C(=S)N(c3ccc(C#N)c(C(F)(F)F)c3)C(=O)C2(C)C)cc1F + CC(Nc1ncnc2nc[nH]c12)c1cc2cccc(Cl)c2c(=O)n1-c1ccccc1	171881-019-R-J1-PDC tumor spheroid viability	%	93.1
Cn1nccc1Nc1nccc(-c2ccn(C(CO)c3ccc(Cl)c(F)c3)c(=O)c2)n1 (stereo not given) + COc1c(OCCCN2CCOCC2)ccc2c3n(c(=NC(=O)c4cnc(N)nc4)nc12)CCN3	171881-019-R-J1-PDC tumor spheroid viability	%	1.32

###

Below, each of the compounds is paired with its reported viability, T/C value.
- Tested on: 171881-019-R-J1-PDC tumor spheroid viability
- test_details: Anticancer human tumor 171881-019-R-J1-PDC cell line growth inhibition [PI3K];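 also: spheroids exposed to compound for 7 days before viability read; 100% = DMSO vehicle-treated spheroids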
- experimental_context: second compound 10 µM; first compound 3.16 µM; hits give low values; spheroids with HUVEC and MSC

compound	viability, T/C [%]
C#Cc1c(F)ccc2cc(O)cc(-c3ncc4c(N5CC6CCC(C5)N6)nc(OCC56CCCN5CC(F)C6)nc4c3F)c12 (stereo not drawn) + CC(Nc1ncnc2nc[nH]c12)c1cc2cccc(Cl)c2c(=O)n1-c1ccccc1	10.3
CC(C)NCC(C(=O)N1CCN(c2ncnc3c2C(C)CC3O)CC1)c1ccc(Cl)cc1 (stereo not drawn) + CC(Nc1ncnc2nc[nH]c12)c1cc2cccc(Cl)c2c(=O)n1-c1ccccc1	9.56
C[C@@H](NC(=O)c1ncnc(N)c1Cl)c1ncc(C(=O)Nc2cc(C(F)(F)F)c(Cl)cn2)s1 + Cc1nc(NC(=O)N2CCCC2C(N)=O)sc1-c1ccnc(C(C)(C)C(F)(F)F)c1	1.29

Data origin, for the record: PubChem BioAssay AID1963986
